Test: NCI Yeast Anticancer Drug Screen. Data for the rad50 strain (AID 155);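 also: 0% = growth of vehicle-only cultures of the same strain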
Settings: S. cerevisiae rad50 strain growth inhibition; at 50.0 µM
Procedure: Growth inhibition of yeast strains with defined genetic alterations is measured as a screen for potential anti-cancer activity. Selected strains with alterations in DNA damage repair or cell cycle control were exposed to compounds and growth inhibition was measured relative to vehicle treated controls. The strain used in this assay is rad50
This is part of a sample that, as a whole, favours compounds with a hit. Of some 79,000 tested, about 15% had one in any assay. Activity calls are given as the source filed them. Rule as the data show it: active = growth inhibition above about 70%; inactive = the rest.
// one of 1 (yes) (active), 0 (no) (inactive), no free text

# count of solved cases: 3
| COMPOUND | LABEL_CLASS |
| --- | --- |
| C/C(=N/N(C=O)C[n+]1ccccc1)C(CN(CC(C)C)CC(C)C)C(=O)Nc1ccc(C)cc1C (stereo not given) | 0 (no) |
| COC(=O)CC1C2(C)C3=C(C)C(c4ccoc4)CC3OC2C2OC(=O)C3(C)C=CC(=O)C1(C)C23 (stereo not given) | 1 (yes) |
| Cc1ccccc1NCc1ccccc1[N+](=O)[O-] | 0 (no) |

Query: Kindly provide the recorded test outcome for the following compound: Cc1cc(N(CCC#N)CCC#N)ccc1/C=C/C(=O)Nc1cccc(Cl)c1
Response: 0 (no)

Query: For Cc1ccc(C2=Nc3ccccc3SC(c3cccc([N+](=O)[O-])c3)C2)cc1 (stereo not given) , which call appears in the assay record?
Response: 0 (no)

Query: Entry Cc1ccc(S(=O)(=O)c2ccc(O)c(C)c2)c(O)c1 (tested in a mixture with another compound) : call = ?
Response: 0 (no)

Query: Please let me know the test result on file for C=CCNC(=S)/N=C/C(C(=O)Nc1ccccc1OC)=C(\C)O .
Response: 0 (no)

* * *

Examples of compounds with documented growth inhibition follow.
Experiment: NCI Yeast Anticancer Drug Screen. Data for the mec2-1 strain (AID 157)
Conditions: S. cerevisiae mec2-1 strain, at 50.0 µM, stronger effect = higher value
About 79,000 compounds went through this panel and 15% of them were active in at least one assay; those are over-represented in the sample as a whole.
Give the value in % but do not write % after it.

| COMPOUND | QUANTITY_KIND | QUANTITATIVE_RESULT |
| --- | --- | --- |
| C=C1C2C[C@@H]3OC4CC5O[C@]6(CC5OC4C(C)C3OC(=O)CC3CC[C@@H]4OC5C7OC8C[C@](CCC9CC(=C)[C@H](CCC(C[C@H]1C)O2)O9)(OC7C4O3)O[C@@H]85)C[C@@H]1O[C@@]2(CC(C)[C@@H]3OC(CC(=O)CCO)C(O)C[C@@H]3O2)CC(C)[C@@H]1O6 (some centres undefined) | growth inhibition | 88.5 |
| CCOC(OCC)N(C)C | growth inhibition | -5.25 |
| CC1CC(=O)CC[C@@H]1OCc1ccccc1 (some centres undefined) | growth inhibition | -17.4 |
| COCOS(C)(=O)=O | growth inhibition | -14.3 |
| C1=Cc2nc1c(-c1ccncc1)c1ccc([n-]1)c(-c1ccncc1)c1nc(c(-c3ccncc3)c3ccc([n-]3)c2-c2ccncc2)C=C1.[Zn+2] | growth inhibition | -9.45 |
| O=C(O)C12CC3(C(=O)O)CC(C(=O)O)(CC(C(=O)O)(C1)C3=O)C2=O | growth inhibition | 13.4 |
| C=C(Br)CNC(=O)Nc1ccccn1 | growth inhibition | 4.55 |
| CC(=O)Nc1ccc([N+](=O)[O-])cc1 | growth inhibition | -0.75 |

Query: I am curious: what growth inhibition value has been reported for S=P(c1ccccc1)(c1ccccc1)C(P(c1ccccc1)c1ccccc1)P(c1ccccc1)c1ccccc1 ?
Response: 49.9

* * *

Assay: NCI Yeast Anticancer Drug Screen. Data for the sgs1 mgt1 strain (AID 161);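 also: 0% = growth of cultures given vehicle only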
Details: S. cerevisiae sgs1 mgt1 strain, at 50.0 µM, stronger effect = higher value
The panel holds about 79,000 compounds, 15% with a hit somewhere; the sample as a whole holds those more often. The source made the active and inactive calls. Cut-off read from the data, not from the text of the source: active = growth inhibition above about 70%; inactive = the rest. Where a SMILES comes first, the peptide text is derived from it. [ ]: non-standard residue; d: D form. The star is where a group is joined. ξ: configuration not given here. Cbz = O=C(OCc1ccccc1)*; ξT = CC(O)C(N)C(=O)O
Attribute: growth inhibition

Answered examples (5):
| COMPOUND | RESULT |
| --- | --- |
| CCCCCCCCCCCC(=O)NC(=S)Nc1cc(OC)ccc1OC | -2.9% (inactive) |
| CS/C(=N/N=C/c1ccc2ccccc2n1)SS/C(=N/N=C\c1ccc2ccccc2n1)SC | -12.4% (inactive) |
| N#CC1(C#N)CC1(C#N)C#N | -1.75% (inactive) |
| Clc1ccc(N=C(Oc2ccc(Cl)cc2)c2ccccc2)cc1 | -4.85% (inactive) |
| CC(C)COP(C)(=O)C(N)(C(F)(F)F)C(F)(F)F (stereo not drawn) | 35.6% (inactive) |

Query: Which measured growth inhibition value corresponds to CC(=O)Nc1cc([N+](=O)[O-])ccc1CC(O)c1ccccc1 (stereo not drawn) ?
Response: -4.1% (inactive)

Query: Consider the compound shown here: CC(CCOS(C)(=O)=O)OS(C)(=O)=O (stereo not drawn) What is its recorded growth inhibition?
Response: 1.25% (inactive)

Query: Name the reported growth inhibition value associated with the compound CC(O)C(NC(=O)CNC(=O)CNC(=O)OCc1ccccc1)C(=O)O (stereo not drawn) (Cbz-Gly-Gly-[ξT]-OH)
Response: -2.45% (inactive)

Query: For the compound shown here, CN1CCC(CC(O)(c2ccccc2)C2CCCCC2)C1 (stereo not drawn) , give the reported growth inhibition.
Response: -2.3% (inactive)

Query: Any idea what its growth inhibition is? The compound is Cc1cccc(C)c1NC(=O)OC(C)C
Response: -28.3% (inactive)

Query: Sample Nc1[nH]c(=O)nc2c1ncn2C1OC(CO)C(O)C1O (stereo not drawn) — what was its growth inhibition?
Response: -12.3% (inactive)

* * *

Assay: NCI Yeast Anticancer Drug Screen. Data for the mec2-1 strain (AID 157)
Settings: S. cerevisiae mec2-1 strain, at 50.0 µM, stronger effect = higher value
The panel holds about 79,000 compounds, 15% with a hit somewhere; the sample as a whole holds those more often.
growth inhibition values for the compounds below.
Write it as a number; the unit % goes unstated.

Solved cases below.
| COMPOUND | growth inhibition [%] |
| --- | --- |
| Cn1cnc([N+](=O)[O-])c1C(=O)NCc1ccccc1 | 9.1 |
| O=C(NCCN1CCNCC1)c1ccc(Cl)cc1 | 40 |
| Cc1ccc(NC(=O)C(C)C)cc1 | -16.6 |
| CC(C)(CCN(CC(=O)O)CC(=O)O)[N+](=O)[O-] | -3.1 |
| CCOC(=O)/C(O)=C(\C#N)c1cc(C)ccc1C | -14.6 |

Query: Recorded growth inhibition for Cc1ccc(/C=N/S(=O)(=O)Cc2ccccc2)cc1 , please?
Response: 3.8

Query: I am curious: what growth inhibition value has been reported for COc1cc2c(cc1Oc1c(O)c(OC)cc3c1C(C)N(C)CC3)C(C)N(C)CC2 (centres undefined) ?
Response: -8.1

Query: Can you share its growth inhibition? I mean this compound: C[n+]1cccc2cc([N+](=O)[O-])ccc21
Response: -6.8

Query: Find the recorded growth inhibition belonging to COc1ccccc1/C=C1\C(=O)N(C(=O)Cc2ccccc2)N=C1C and report it.
Response: -8.15

Query: What value of measured growth inhibition is listed for Cc1ccc(S)c(C(O)(C(F)(F)F)C(F)(F)F)c1 ?
Response: 3.65

Query: Fill blank: measured growth inhibition of the compound COc1cc2c(c(OC)c1OC)-c1ccc(SC)c(=O)cc1[C@@H](NC(=O)NCCCl)CC2 is ____.
Response: -16.8

Query: Tell me the measured growth inhibition of Cc1cc(C)c(/C=N/NC(=O)NN)c(C)c1 , please.
Response: -7.15

Query: // returns reported growth inhibition for input O=c1c(O)c(-c2cc(O)c(O)c(O)c2)oc2cc(O)ccc12
Response: -36.8

Query: Need growth inhibition, item Cc1ccc(-c2nc3ccccc3cc2N)cc1
Response: 7.65

Query: For the compound shown here, O=C(O)c1ccc(C(=O)Nc2cccc3ccccc23)c(C(=O)O)c1 , give the reported growth inhibition.
Response: 8.4

Query: Entry Cc1cccc(C)c1NC(=S)N1CCC(CCCC2CCN(C(=S)Nc3c(C)cccc3C)CC2)CC1 has what growth inhibition?
Response: -18.6

Query: For the compound shown here, O=c1cc(NC(c2ccccc2)c2ccccc2)[nH]c(=O)[nH]1 , give the reported growth inhibition.
Response: 22.1

Query: # growth inhibition lookup, item CC1=C(O[Si](C(C)C)(C(C)C)C(C)C)C2CC1(OS(=O)(=O)C(F)(F)F)[C@H]1C(=O)N(c3ccccc3)C(=O)[C@@H]21 (some centres undefined)
Response: -11.4

Query: growth inhibition for O=C1c2cc(Cl)ccc2-c2ccc(N=Cc3ccccc3Cl)cc21 ?
Response: -1.55

Query: Recorded growth inhibition of C/C(=N\n1c(-c2ccccc2)nc2ccccc2c1=O)c1ccc(C)cc1 , please.
Response: 7.8

Query: Can you look up the measured growth inhibition of COC(=O)n1sc(SC)nc1=N for me?
Response: -3.95

Query: Which measured growth inhibition value corresponds to COC(=O)CNc1cccc([N+](=O)[O-])c1 ?
Response: 5.15

Query: So what's the measured growth inhibition for this one? Oc1ccccc1/C=N\c1nccs1
Response: 19.2

Query: Value lookup for growth inhibition; key = O=C(O)C1=CC(c2ccccc2O)=NCCN1
Response: -0.75
